Just for reference, PubChem BioAssay (NCI) is where these values come from.

Test system: SN12C renal
Assay: NCI-60 one-dose screen, 48 h
Details: 10 µM unless noted
Compounds without any hit were thinned out: in the full panel of roughly 83,000, 20% have a hit. Active and inactive are the calls of the source. Rule for the calls: active = growth percent below 10; inactive = the rest.
Bench note: report the call from active, inactive

I'd appreciate the recorded outcome for `Cc1nc2ccccc2c(/C=C/c2ccccc2)c1C(=O)/C=C/c1ccc(Cl)cc1` from this test.
inactive

Could you check what this test reported for NC(CCc1nc2ccccc2c(=O)[nH]1)C(=O)O (stereo not given) ?
inactive

Outcome? `CN1CCN(Cc2ccc(C(=O)Nc3cncc(C#Cc4cnc(N)c5ccccc45)c3)cc2C(F)(F)F)CC1`
active

Which outcome was entered for the compound `CCOC(=O)c1c(Cl)c2c(n1Cc1ccccc1)-c1oncc1CCC2` in this test?
inactive

# outcome recorded in this test, key = `CCCCN1CCN(c2ccc3nc(-c4ccc5nc(-c6ccc(OCC)cc6)[nH]c5c4)[nH]c3c2)CC1`
inactive

Outcome logged for `CCOC(=O)c1sc(-c2ccc(OS(=O)(=O)c3ccccc3[N+](=O)[O-])c(C=O)c2)nc1C` in this assay:
active

Lab log entry: `COc1ccc(C)c2sc(N(Cc3cccnc3)C(=O)c3ccc(C#N)cc3)nc12` — outcome as called in the assay?
active

What is the recorded call for this compound in the test? `COc1ccc(OC)c(N(CCN2C(=O)c3ccccc3C2=O)C(=O)CCl)c1`
inactive

What call does the record list for `Cn1c(=O)n(C)c2cc(CNCCNc3ccnc4cc(Cl)ccc34)ccc21` ?
inactive

Please share the test call associated with COc1ccc(-c2nsc3c2NC(=O)CC3c2cccc(OC)c2)cc1 (stereo not given) .
inactive

====

Tested on: HOP-62 NSCLC
Assay: NCI-60 one-dose screen, 48 h (100 = growth as untreated, 0 = no growth, -100 = all killed)
Conditions: 10 µM unless noted
Compounds without any hit were thinned out: in the full panel of roughly 83,000, 20% have a hit. The source made the active and inactive calls. How the source made its calls: active means growth percent below 10; inactive means the rest.
value-type: growth

Form field - read-out: growth; system: HOP-62 NSCLC; submitted item: `CCOC(=O)c1c(Cl)c2c(n1Cc1ccccc1)-c1oncc1CCC2`
80% (inactive)

Please tell me: growth of `O=C(NC1CCN(Cc2ccccc2)CC1)c1cc2nc(-c3ccc(Cl)s3)cc(C(F)(F)F)n2n1` , system HOP-62 NSCLC?
70.7% (inactive)

Identify the measured growth of `COc1ccc(/C=C/C(=O)c2ccc(Nc3nc(NCCO)nc(Nc4ccc(Cl)cc4)n3)cc2)cc1` for HOP-62 NSCLC.
87.8% (inactive)

growth of `CN(C)c1ccc(/C=C/c2ccnc3c(O)cccc23)cc1` on HOP-62 NSCLC?
20.3% (inactive)

// lookup growth | system=HOP-62 NSCLC | key= `Cc1ccc2cccc(Oc3ccc(Nc4ncnc5onc(-c6ccccc6)c45)cc3)c2n1`
90.4% (inactive)

// fetch HOP-62 NSCLC growth for `C=C[C@@H]1CCC/C=C/[C@@H]2C[C@H](O)C[C@H]2[C@H](O)/C=C/C(=O)O1`
19.2% (inactive)

Under HOP-62 NSCLC: growth value of OCCNc1nc(Nc2ccc(C3=NN(c4cc(Cl)cc(Cl)c4)C(c4ccc(C(F)(F)F)cc4)C3)cc2)nc(N2CCOCC2)n1 (stereo not given) ?
74.5% (inactive)

Param readout = growth; param system = HOP-62 NSCLC; param query = `Cc1[nH]c2ccccc2c(=O)c1CC=C(Cl)Cl` ; response: value
-7.31% (active)

Hi! What's the reported growth for `Cc1cccc(NC(=O)c2sc3nc4c(cc3c2N)CCCC4)c1C` on HOP-62 NSCLC?
26.4% (inactive)

Look up growth with HOP-62 NSCLC for this compound: `CC(C)C[C@H](C(=O)N[C@@H](C)C(N)=O)N1CC=CCN(O)S1(=O)=O`
102% [5 µM] (inactive)

GET /values?readout=growth&system=HOP-62 NSCLC&item= `COC(=O)/C(CCC=C(C)C)=C1\[C@@H](OC(C)=O)C[C@@]2(C)[C@H]1C[C@@H](O)[C@H]1[C@@]3(C)CC[C@H](NCc4ccccc4)[C@@H](C)[C@@H]3CC[C@@]12C`
84% (inactive)

# returns recorded growth (system: HOP-62 NSCLC) for `C[C@@H](C(=O)NCCCC#Cc1cnc(Nc2ccc(C#N)cc2)nc1NC1CC1)N(C)C(=O)/C=C/CN(C)C`
44.2% (inactive)

// fetch HOP-62 NSCLC growth for CC(=O)SC1CC(=O)C=C2CCC3C4CCC(=O)OC4(C)CCC3C21C (stereo not given)
106% (inactive)

Hello, I am looking for reported growth with HOP-62 NSCLC for `CCOC(=O)c1cc2c(n1Cc1cc(OC)cc(OC)c1)-c1oncc1CCC2` . Could you help?
50.4% (inactive)

API: value(readout=growth, system=HOP-62 NSCLC) for record Cc1ccc(S(=O)c2ccc([N+](=O)[O-])c3nonc23)cc1 (stereo not given)
112% (inactive)

What value of growth on HOP-62 NSCLC does `CC/C=C\C[C@H](O)C/C=C1/C(=O)C=C[C@@H]1C/C=C\CCCC(=O)OCCS(=O)(=O)c1ccccc1` have?
22.1% (inactive)

Lookup: growth / HOP-62 NSCLC / `O=c1oc2ccc(Cl)cc2c(=O)n1-c1ccc(Cl)cc1F`
-6.42% (active)

Tell me reported growth for `Nc1nc(-c2cnccn2)nn1-c1nc2ccccc2s1` , tested with HOP-62 NSCLC.
95.4% (inactive)

Enter reported growth observed with HOP-62 NSCLC for COc1ccc(-c2nsc3c2NC(=O)CC3c2ccsc2)cc1 (stereo not given)
33.5% (inactive)

Lab request: please report growth under test system HOP-62 NSCLC for `FC(F)(F)c1cccc(CNC2CCN(CCc3ccccc3)CC2)c1`
91.1% (inactive)
